Catalogue of compounds with associated melting point

Cc1cc(Oc2c(Cl)cc(C(F)(F)F)cc2[N+](=O)[O-])n[nH]1
120 to 123 °C
CCCC1CCC2(C)C(=CCC3C4CCC(=O)C4(C)CCC32)C1 (stereo unspecified)
103 to 105 °C
Fc1ccc(Nc2ncnc(NN=Cc3ccc(OC(F)(F)F)cc3)n2)cc1C(F)(F)F
185 to 186 °C
Cc1c(CNCc2ccccc2)[nH]c(=O)c2c1ccc1nc(Nc3c(Cl)cccc3Cl)n(C)c12
231 to 234 °C
CC(=O)n1nc(SCc2ccccc2)nc1N
146 °C

Now take the following compound into account.
## Input Quick one: give measured melting point for CC(=N)NN(C)C(=O)OC(C)(C)C
## Output 187 to 189 °C

----------
reported.endpoint: melting point

Solved entries (count: 2):
NS(=O)(=O)c1ccc(NC(=O)Nc2ccc3c(c2)Cc2ccccc2-3)cc1
280 to 285 °C
CCCCc1nc2c(N)nc3ccccc3c2n1CCCCS(C)=O (stereo not given)
126 to 128 °C

## Input Quick one: give measured melting point for CCOc1ccc2c(c1)c(C[C@H](C)N)c1n2CCC1
## Output 101 to 102 °C

## Input Quick one: give measured melting point for CCOC(=O)c1cnc(-c2cc([N+](=O)[O-])ccc2OCC)[nH]c1=O
## Output 222 to 224 °C

## Input Quick one: give measured melting point for Cc1cc(=O)n(-c2cc(C(=O)OC(C)C)c(Cl)cc2F)c(=O)n1C(F)F
## Output 90 to 93 °C

----------
Catalogue of compounds with associated melting point

Nc1c(Cl)cccc1C(=O)c1ccccc1F
86 to 87.5 °C
Fc1ccc2nc(Cl)c3nnc(C(F)(F)F)n3c2c1
135 to 138 °C
Cc1nc2cc(CN3CCN(C(c4ccccc4)c4ccccc4)CC3)ccc2n1CCSc1ccccc1
170 °C

## Input Quick one: give measured melting point for CCCN(CCC)c1c([N+](=O)[O-])cc(C#N)c(C)c1[N+](=O)[O-]
## Output 97 to 99 °C

## Input Quick one: give measured melting point for O=C(O)C(=O)c1ccc(OCCOc2ccc3ccncc3c2)cc1
## Output 260 °C

## Input Quick one: give measured melting point for O=C(C=P(c1ccccc1)(c1ccccc1)c1ccccc1)CCCCO
## Output 121 to 124 °C

## Input Quick one: give measured melting point for Cc1ccc(C2c3c(C)c(N4CCN(c5ccccn5)CC4)c(C)c(C)c3OC2(C)C)cc1 (centres undefined)
## Output 190 to 191 °C

## Input Quick one: give measured melting point for CSc1nnc2c(=O)[nH]c(-c3ccccc3OCC(C)C)nc2n1
## Output 237 to 238 °C

## Input Quick one: give measured melting point for COc1ccc2sc(CC3(O)C4CC5CC(C4)CC3C5)nc2c1 (centres undefined)
## Output 140 to 142 °C

## Input Quick one: give measured melting point for O=C(O)c1ccc(OCCCCl)cc1
## Output 136 to 138 °C

## Input Quick one: give measured melting point for CN(C(=O)c1cnn(C)c1C(=O)Nc1ccn2nc(N3CCOCC3)nc2c1)C1CCCC1
## Output 222 to 224 °C

## Input Quick one: give measured melting point for CCOC(=O)C(C(=O)N(C)C)=C(OC(=O)c1ccccc1)c1ccc(Cl)cc1Cl
## Output 106 °C

----------
Catalogue of molecules with associated melting point

Solved entries (count: 10):
CC(C)c1cccc(C(C)C)c1NC(=O)[C@H](C)N(C)C(=O)OC(C)(C)C
108 to 110 °C
COc1c2c(nn1-c1ccc(Cl)cc1F)CCCC2
100 to 102 °C
CN(C)CCNC(=O)c1cc(-c2cccc(Cl)c2)c2cc(C(c3ccc(Cl)cc3)c3cncn3C)ccc2n1 (stereo not given)
184 °C
N#Cc1c(Br)[nH]c(Br)c1Br
151 to 152 °C
COc1c(-c2ccc3cc(NS(C)(=O)=O)ccc3c2)cc(N2CCCNC2=O)cc1C(C)(C)C
> 300 °C
CN(Cc1ccco1)C1=N/C(=C\c2c[nH]c3ncc(Cl)cc23)C(=O)N1
315 °C
COc1cc(NC(NC2CCC2)=C(C#N)S(=O)(=O)c2ccc(Cl)cc2)cc(OC)c1
164 °C
Cc1ccc(-c2ccccc2-c2nnnn2-c2ccc([N+](=O)[O-])cc2)cc1
164 to 166 °C
CCOC(=O)C1=C(N)N=C(SC)C(C(=O)OCC)C1c1cccc([N+](=O)[O-])c1 (stereo not given)
144 °C
COc1ccc([C@H](Sc2cc(Oc3ccccc3)ccc2N)[C@@H](O)C(=O)O)cc1
151 to 152 °C

## Input Quick one: give measured melting point for CN1CC2CCCCC2C1c1noc(=O)[nH]1 (stereo not given)
## Output 102 to 104 °C

## Input Quick one: give measured melting point for COc1ccccc1C(=O)NCCc1ccc(CC(=O)O)cc1
## Output 154 to 155 °C

## Input Quick one: give measured melting point for Cc1cc(COc2ccc(Oc3ccc(Cl)cc3)cc2)n(O)c(=O)c1
## Output 168 to 170 °C

## Input Quick one: give measured melting point for O=S(=O)(c1cccc(-c2cccc(-c3nc(-c4ccc(C(F)(F)F)cc4)cc(C(F)(F)F)n3)c2)c1)N(CCO)CCO
## Output 112 °C

## Input Quick one: give measured melting point for CC1CCN(c2cc3nc(C(C)(C)C)sc3cc2N)CC1
## Output 146 to 148 °C

## Input Quick one: give measured melting point for CCOc1nc(NCc2ccco2)nc(Nc2ccc3[nH]c(-c4cccs4)nc3c2)n1
## Output 170 to 172 °C

## Input Quick one: give measured melting point for O=c1c2c(Cl)cccc2nc(C(S)c2ncnc3[nH]cnc23)n1-c1ccccc1Cl (stereo not given)
## Output 234 °C

## Input Quick one: give measured melting point for O=C(O)c1ccc2oc3c(c(=O)c2c1)CCCC3
## Output 253 to 255 °C

## Input Quick one: give measured melting point for CCc1ccc2c(c1)C(=O)c1ccc(-c3nnn[nH]3)cc1S2(=O)=O
## Output 239 °C

## Input Quick one: give measured melting point for CCCCCCCCON=C(C(=O)OCC)c1csc(N)n1
## Output 77 to 78 °C

## Input Quick one: give measured melting point for Oc1ccc(Oc2ncc(C(F)(F)F)cc2Cl)cc1
## Output 70 to 72 °C

## Input Quick one: give measured melting point for CNC(=S)NS(=O)(=O)c1cc(CCNC(=O)c2cnc3ccccc3c2)ccc1OC
## Output 85 °C

## Input Quick one: give measured melting point for O=C(O)Cc1ccc(OCCCCc2cc(-c3ccc(C(F)(F)F)cc3)no2)cc1
## Output 125 to 126 °C

## Input Quick one: give measured melting point for O=C(O)c1cc([N+](=O)[O-])cc2c1Nc1cc(-c3ccccc3)ccc1O2
## Output > 250 °C

## Input Quick one: give measured melting point for CC(O)(CO)c1cccc(OCc2ccc3ccccc3c2)c1 (single isomer, unassigned; (-))
## Output 104 to 106 °C

## Input Quick one: give measured melting point for CC(C)Oc1cc([N+](=O)[O-])ccc1-n1cccc1
## Output 59 to 61 °C

## Input Quick one: give measured melting point for Cc1csc(N)c1S(=O)(=O)CC#N
## Output 88 to 90 °C

## Input Quick one: give measured melting point for Cn1ncc2[nH]c3ccc(Cc4ccccc4)cc3c(=O)c21
## Output 282 °C

## Input Quick one: give measured melting point for COC(=O)C(Oc1cc(OCc2ccsc2)ccc1C#N)c1ccccc1Cl (racemic)
## Output 102 to 104 °C

## Input Quick one: give measured melting point for Cc1cc(C(=O)Nc2ccn3cc(-c4ccccc4)nc3n2)ccn1
## Output 255 to 257 °C

## Input Quick one: give measured melting point for Nc1nccc(-c2ccc(OCC(O)CN3CCN(c4cccc(Cl)c4)CC3)cc2)n1 (stereo not given)
## Output 197 to 198 °C

## Input Quick one: give measured melting point for COc1cncnc1N1CCN(CCCc2c[nH]c3ccc([N+](=O)[O-])cc23)CC1
## Output 163 to 166 °C

----------
reported.endpoint: melting point

Solved entries (count: 2):
COc1ccc(-c2nc(CCCCCCc3nnn[nH]3)oc2-c2ccc(OC)cc2)cc1
124 °C
O=C(Nc1c(C(=O)O)[nH]c2cc(Cl)cc(Cl)c12)c1ccccc1Cc1ccccc1
234 to 235 °C

## Input Quick one: give measured melting point for CCOC(=O)CC(=O)c1cc(F)c(N2CCC(N)C2)nc1Nc1ccc(F)cc1F (centres undefined)
## Output 140 to 142 °C

## Input Quick one: give measured melting point for COc1cc(CN2N=C(c3ccc(OC)c(OC)c3)[C@@H]3CCCC[C@@H]3C2=O)cc(OC)c1 (relative stereo)
## Output 114 to 117 °C

## Input Quick one: give measured melting point for CCCCCCCCCCc1ccc(C(=O)COC)c(OC(=O)c2cc(OC)c(OC)cc2OC)c1
## Output 80 to 81 °C

## Input Quick one: give measured melting point for C=CCc1cc(-c2ccc(F)cc2)cc(C(=O)OC)c1O
## Output 76 to 77 °C

## Input Quick one: give measured melting point for CCOC(=O)C1=C(C)NN=C(CC)C1c1cccc([N+](=O)[O-])c1 (centres undefined)
## Output 124 °C

## Input Quick one: give measured melting point for CN(C)CCC(c1ccc(NC=O)cc1)c1ncc[nH]1 (centres undefined)
## Output 142 to 144 °C

## Input Quick one: give measured melting point for NC(=O)N(Cc1ccc(C(F)(F)F)c(N2CCCCC2)c1)c1cccc2c1CC(O)CC2 (centres undefined)
## Output 163 °C

Just for reference, a melting point compilation (Tetko et al.; mined from patent text by program, amines drawn as free bases though some values may be those of a salt) is where these values come from.
